The origin of these recorded values is a melting point compilation (Tetko et al.; mined from patent text by program, amines drawn as free bases though some values may be those of a salt).

Measurement type: melting point

Some solved entries appear below for comparison.
| Molecule | Measurement type | Data value |
| --- | --- | --- |
| CCC12CCC3C4=C(CCC3C1C=CC2=O)CC(OC)=CC4 (stereo not drawn) | melting point | 89 to 91 °C |
| OCCNc1cc(Nc2ccc(Oc3ccccc3)cc2)ncn1 | melting point | 154 to 156 °C |
| COC(=O)Cc1ccc(S(=O)(=O)c2ccc(Cl)cc2)cc1 | melting point | 78 to 80 °C |
| CCCc1c2nc(C(=O)OC)cc(N)c2cc2c(=O)cc(C(=O)OCC)oc12 | melting point | 267 to 270 °C |
| CCCN(CCN1CCN(c2cccc(Cl)c2Cl)CC1)C1CCc2ncsc2C1 (stereo not drawn) | melting point | 104 °C |

I need melting point for every entry listed below, if you could help.
1. CC(=O)CCCCCCC(=O)c1ccc(OCc2ccccc2)c(OCc2ccccc2)c1
2. Clc1ccc(Nc2nc3ccccc3c3[nH]c(C4CCC4)nc23)cc1Cl
3. CCOc1nn(Cc2ccc(OCc3cn4c(OCC)cccc4n3)cc2)cc1CCC(=O)O
4. Cn1c([N+](=O)[O-])cnc1-c1nc2ccccc2n1CCN1CCOCC1

1. 64 to 66 °C
2. 131 to 134 °C
3. 197 to 198 °C
4. 237 °C

I need melting point for every entry listed below, if you could help.
1. CC(=O)Nc1nc(C)c(S(=O)(=O)NCCO)s1
2. Oc1ccccc1Nc1cc[nH]n1
3. CC(=O)Nc1ccc(C=NNC(N)=S)cc1Cl

1. 211 °C
2. 163 to 164 °C
3. 235 to 238 °C

Requested field: melting point. Item: CCOC1CC2(C)C(CCC3C2C(=O)CC2(C)C3CCC23OCCO3)CC1O (stereo not drawn) 142 to 145 °C

---

Measurement type: melting point

Some solved entries appear below for comparison.
| Compound | Data value |
| --- | --- |
| O=C1CCC(c2ccc3[nH]c(-c4ccc(-n5ccnc5)cc4)cc3c2)=NN1 | 295 to 298 °C |
| CCOC(=O)C(Cc1cccc(OC)c1OCc1ccccc1)(NC(C)=O)C(=O)OCC | 94 to 96 °C |
| CCOC(=O)c1cnc2c(NC(=O)c3c(Cl)cccc3Cl)cccc2c1SCC(=O)O | 174 to 175 °C |
| CCc1ccc(C)c(NC(=O)C(C)(C)C)n1 | 72 to 75 °C |

I need melting point for every entry listed below, if you could help.
1. O=C1SC(Cc2ccc(OCCn3ccc4cccnc43)cc2)C(=O)N1C(c1ccccc1)(c1ccccc1)c1ccccc1 (stereo not given)
2. O=C(C1CC=CCC1)C1CCC2C(C=CC3=CCCc4c3n2c2ccncc42)C1 (stereo not given)
3. CN(C)CCNC(=O)c1ccc(Br)cc1
4. COc1ccc(-c2cc(F)cc3c2NC(CN)CO3)c(C)c1 (stereo not given)
5. CC1(C)CCc2c(N3CCCC3)nc3sc4c(NCc5ccco5)ncnc4c3c2C1
6. O=C(O)CCc1ccc2c(c1)oc1ccc(Cl)cc12

1: 168 to 169 °C; 2: 156 to 158 °C; 3: 67 to 69 °C; 4: 82 °C; 5: 201 to 202 °C; 6: 174 to 178 °C

---

Assignment: determine reported melting point for the given compounds.

| Compound | Data value |
| --- | --- |
| CCN(CC)CCCC1CCN(CCNC(=O)N2c3ccccc3C(=O)Nc3cccnc32)CC1 | 165 to 166 °C |
| O=C(O)CCCCCCCCCCCCCCCCC(=O)ON1C(=O)CCC1=O | 120 to 122 °C |
| Nc1nc(N)c(C=O)c(OCC2CCCCC2)n1 | 159 to 160 °C |
| CCCOC(=O)C(=C1SC=CS1)S(=O)(=O)C(C)C | 78 to 79 °C |
| N#CC(C#N)=C(NCCCN1CCCCC1)NCCCN1CCCCC1 | 110 to 112 °C |

I need melting point for every entry listed below, if you could help.
1. Fc1ccc(-c2nc(-c3ccc(CN4CCOCC4)cc3)[nH]c2-c2ccncc2)cc1
2. COCC1CCCN(c2ccnc3sc(C(N)=O)c(N)c23)C1 (centres undefined)
3. CCn1cc(CN(C(=O)C2CCCc3c(O)cccc32)c2ccc(C(C)C)cc2)cn1 (centres undefined)
4. OCC(CO)Oc1ccc(Cl)cc1

["242 to 243 °C", "229 to 230 °C", "212 to 215 °C", "62 to 64 °C"]

---

Assignment: determine reported melting point for the given compounds.

Some solved entries appear below for comparison.
| Compound | melting point |
| --- | --- |
| CS(=O)(=O)C(C#N)=Cc1c(Cl)n(Cc2ccccc2)c2ccccc12 | 206 °C |
| Cc1ccc(S(=O)(=O)Nc2cc(C)cc([N+](=O)[O-])c2N)cc1 | 184 °C |
| CN(C)C1CC2=CNC=C3C=C(C#N)OCC1=C32 (configuration not stated) | 205 to 207 °C |

I need melting point for every entry listed below, if you could help.
1. OCc1nn(-c2ccc(F)cc2)c2c1CCCC2
2. O=c1nc(-c2ccccn2)sc2ccc(Br)cc12
3. CN(C)CC1CNc2cc(O)ccc2C1 (configuration not stated)
4. C[C@@H](n1cnc2cc(Br)ccc2c1=O)[C@](O)(Cn1cncn1)c1ccc(F)cc1F
5. COc1ccc(NC(=O)NCC2(c3ccccc3)CCCCC2)cc1
6. CN(C)Cc1c(Cl)nc(-c2ccccc2)c2ccccc12

["117 to 118 °C", "253 to 254 °C", "151 to 152 °C", "109 to 112 °C", "155 to 157 °C", "75 to 77 °C"]

---

Measurement type: melting point

Some solved entries appear below for comparison.
| Compound | melting point |
| --- | --- |
| O=C(Sc1ccccn1)c1ccc(I)cc1 | 127 °C |
| CCSc1nc2ccc(N)cc2s1 | 77 to 78 °C |
| NS(=O)(=O)c1ccc2c(c1)C(=O)C1(CCOC1=O)S2 (centres undefined) | 199 to 201 °C |

I need melting point for every entry listed below, if you could help.
1. O=C(Nc1ccccc1)N1CCN=C1CSc1ccccc1
2. COC(=O)CCCc1cc2cc(Cl)ccc2n1S(=O)(=O)c1ccc2ccccc2c1
3. CS(=O)(=O)N1CCCn2c(nc3c(N)nc4cc(OCc5ccccc5)ccc4c32)C1

["117 to 119 °C", "116 to 118 °C", "235 to 236 °C"]

I need melting point for every entry listed below, if you could help.
1. CCCCCCCCCCCCCCCCCCCCC(COC(C)=O)(COC(C)=O)NC(C)=O
2. CCSc1nc(=O)n(CC(C)(C)C)c(=O)n1N
3. Nc1ccc(CCCCOCCCCCCNCC(O)c2cc(O)cc(O)c2)cc1 (centres undefined)
4. NC(=O)N1CCN(C(=O)Cc2ccc(Cl)c(Cl)c2)C(CN2CCCC2)C1 (centres undefined)
5. CC1CCN(c2nc(Nc3cc(C4CC4)n[nH]3)c3ccccc3n2)CC1

93 to 94 °C
202 to 204 °C
157 to 159 °C
206 to 209 °C
190 °C

I need melting point for every entry listed below, if you could help.
1. COC(=O)c1cc(C2OC(=O)CC(C)O2)cnc1C1=NC(C)(C(C)C)C(=O)N1 (centres undefined)
2. CCCCC1=NC2(CCCC2)C(=O)N1Cc1ccc(-c2ccccc2S(=O)(=O)Nc2noc(C)c2C)c(CN2CCCC2=O)c1
3. CCc1[nH]n(C2CCCC2)c2nc(Cc3ccccc3OC)nc(=O)c1-2

1. 65 to 75 °C
2. 97 to 103 °C
3. 145 to 146 °C

---

Measurement type: melting point

Some solved entries appear below for comparison.
| Molecule | melting point |
| --- | --- |
| CC1(CN2CCC(C(=O)c3ccc(OC(F)(F)F)cc3)CC2)Cn2cc([N+](=O)[O-])nc2O1 (stereo not given) | 113 to 115 °C |
| CCN(CC)C(=O)c1cccc(OC)c1-c1ccccc1 | 55 to 56 °C |
| COC(=O)c1cc(O)cc(C(=O)OC)c1[N+](=O)[O-] | 183 to 186 °C |
| CNC(=O)N(C)C(=O)Nc1ccccn1 | 112 to 115 °C |

Turning to the following molecule.
Requested field: melting point. Item: COCCn1nc2c(N)nc3ccccc3c2c1CC(C)(C)N 199 to 200 °C

---

Measurement type: melting point

I need melting point for every entry listed below, if you could help.
1. O=C1CCCn2c1cc1ccccc12
2. FC(F)(F)c1ccc(-c2cc(Oc3cccc4cnccc34)nnc2Oc2cccc3cnccc23)cc1
3. CCCCNS(=O)(=O)C[C@@H](O)C(O)[C@@H](CC1CCCCC1)NC(=O)[C@H](CC(C)C)NC(=O)OCc1ccccc1 (relative stereo)

1: 138 to 140 °C; 2: 197 to 199 °C; 3: 50 to 70 °C
